Target: GIPR (CHO-K1-hGIPR cells) (Homo sapiens)
Construct: host or cells: CHO-K1
Sequence (P48546 22-466): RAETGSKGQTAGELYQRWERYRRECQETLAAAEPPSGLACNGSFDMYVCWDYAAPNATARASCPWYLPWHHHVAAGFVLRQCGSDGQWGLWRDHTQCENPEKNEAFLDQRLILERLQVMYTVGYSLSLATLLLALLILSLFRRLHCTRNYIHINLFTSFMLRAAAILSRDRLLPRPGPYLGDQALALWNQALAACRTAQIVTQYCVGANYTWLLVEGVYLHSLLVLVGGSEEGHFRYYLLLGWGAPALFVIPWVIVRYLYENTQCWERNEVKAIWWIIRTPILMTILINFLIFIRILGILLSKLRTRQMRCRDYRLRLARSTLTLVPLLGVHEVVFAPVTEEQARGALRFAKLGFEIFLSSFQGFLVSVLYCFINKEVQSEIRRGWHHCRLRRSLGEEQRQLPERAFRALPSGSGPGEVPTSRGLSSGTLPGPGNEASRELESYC
Experiment: FACS binding assay
Settings: competition with 20 nM GIP-057, 4° C., 1 hour, read-out: pIC50 Category (converted)
IC50 values, listed per item

CC[C@H](C)[C@@H]1NC(=O)[C@H](CC(C)C)NC(=O)C2(CCNCC2)NC(=O)[C@@H](NC(=O)[C@@H](CC(C)C)NC(=O)[C@H](CCC(=O)O)NC(=O)[C@@H]2C[C@@H](N)CN2C(=O)[C@H](Cc2c[nH]c3ccc(Cl)cc23)NC(=O)[C@H](Cc2c[nH]c3ccccc23)NC(=O)[C@H](CC(=O)O)NC(=O)CCC(=O)NCCCOCCOCCOCCCNC(=O)CN2CCN(CC(=O)O)CCN(CC(=O)O)CCN(CC(=O)O)CC2)CNCc2cccc(n2)CSCCNC1=O [GIP-113]    < 10 nM

Kindly consider the entry below.
# IC50 lookup, item CC[C@H](C)[C@@H]1NC(=O)[C@H](CC(C)C)NC(=O)C2(CCOCC2)NC(=O)[C@@H](NC(=O)[C@@H](CC(C)C)NC(=O)[C@H](CCC(=O)O)NC(=O)[C@@H]2C[C@@H](O)CN2C(=O)[C@H](Cc2c[nH]c3ccc(Cl)cc23)NC(=O)[C@H](Cc2c[nH]c3ccccc23)NC(=O)[C@H](CC(=O)O)NC(=O)CN2CCC(NC(=O)CN3CCN(CC(=O)O)CCN(CC(=O)O)CCN(CC(=O)O)CC3)CC2)CNCc2cccc(n2)CSCCNC1=O [GIP-106]
< 10 nM

---

Target: GIPR (CHO-K1-hGIPR cells) (Homo sapiens, UniProt P48546)
Construct: host or cells: CHO-K1
Sequence (P48546 22-466): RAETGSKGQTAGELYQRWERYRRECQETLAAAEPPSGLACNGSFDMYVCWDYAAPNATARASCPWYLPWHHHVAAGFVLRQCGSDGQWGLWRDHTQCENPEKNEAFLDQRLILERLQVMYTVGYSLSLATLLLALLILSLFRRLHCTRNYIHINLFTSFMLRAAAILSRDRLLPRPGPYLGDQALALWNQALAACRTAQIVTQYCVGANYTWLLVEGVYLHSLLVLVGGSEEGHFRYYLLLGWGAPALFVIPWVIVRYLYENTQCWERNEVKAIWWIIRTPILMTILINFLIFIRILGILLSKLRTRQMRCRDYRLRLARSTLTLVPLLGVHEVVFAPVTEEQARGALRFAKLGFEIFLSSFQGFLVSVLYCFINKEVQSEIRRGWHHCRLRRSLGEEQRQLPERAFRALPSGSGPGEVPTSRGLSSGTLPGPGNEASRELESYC
Test: FACS binding assay
Conditions: competition with 20 nM GIP-057, 4° C., 1 hour, read-out: pIC50 Category (converted)
*1 amine or outer side, *2 acyl side, *3 side chain or, on linkers, in order; H or OH if unused. Where a SMILES comes first, the peptide text is derived from it. Bridges are numbered along the chain shown (N, C = ends). [ ]: non-standard residue; d: D form. Trp(5-Cl) = N[C@@H](Cc1c[nH]c2ccc(Cl)cc12)C(=O)O; Pyridine(2,6-diCH2) = c1cc(C[*:1])nc(C[*:2])c1; Hyp = O=C(O)[C@@H]1C[C@@H](O)CN1
Reported IC50 values for a set of compounds

CC[C@H](C)[C@@H]1NC(=O)[C@H](CC(C)C)NC(=O)[C@H](Cc2c[nH]c3ccccc23)NC(=O)[C@@H](NC(=O)[C@@H](CC(C)C)NC(=O)[C@H](CCC(=O)O)NC(=O)[C@@H]2C[C@@H](O)CN2C(=O)[C@H](Cc2c[nH]c3ccc(Cl)cc23)NC(=O)[C@H](Cc2c[nH]c3ccccc23)NC(=O)[C@H](CC(=O)O)NC(C)=O)CSCc2cccc(n2)CSC[C@@H](C(N)=O)NC1=O [GIP-234] (Ac-DW[Trp(5-Cl)][Hyp]E[dL]CWLIC-NH2; linker 7-11 via Pyridine(2,6-diCH2))    < 10 nM

Now look at this entry.
Data request, read-out IC50, for CC[C@H](C)[C@@H]1NC(=O)[C@H](CC(C)C)NC(=O)[C@H](Cc2ccccc2)NC(=O)[C@@H](NC(=O)[C@@H](CC(C)C)NC(=O)[C@H](CCC(=O)O)NC(=O)[C@@H]2C[C@@H](O)CN2C(=O)[C@H](Cc2c[nH]c3ccc(Cl)cc23)NC(=O)[C@H](Cc2c[nH]c3ccccc23)NC(=O)[C@H](CC(=O)O)NC(C)=O)CSCc2cccc(n2)CSC[C@@H](C(N)=O)NC1=O [GIP-228] (Ac-DW[Trp(5-Cl)][Hyp]E[dL]CFLIC-NH2; linker 7-11 via Pyridine(2,6-diCH2))
< 10 nM

---

Target: GIPR (CHO-K1-hGIPR cells) (Homo sapiens, UniProt P48546)
Construct: host or cells: CHO-K1
Sequence (P48546 22-466): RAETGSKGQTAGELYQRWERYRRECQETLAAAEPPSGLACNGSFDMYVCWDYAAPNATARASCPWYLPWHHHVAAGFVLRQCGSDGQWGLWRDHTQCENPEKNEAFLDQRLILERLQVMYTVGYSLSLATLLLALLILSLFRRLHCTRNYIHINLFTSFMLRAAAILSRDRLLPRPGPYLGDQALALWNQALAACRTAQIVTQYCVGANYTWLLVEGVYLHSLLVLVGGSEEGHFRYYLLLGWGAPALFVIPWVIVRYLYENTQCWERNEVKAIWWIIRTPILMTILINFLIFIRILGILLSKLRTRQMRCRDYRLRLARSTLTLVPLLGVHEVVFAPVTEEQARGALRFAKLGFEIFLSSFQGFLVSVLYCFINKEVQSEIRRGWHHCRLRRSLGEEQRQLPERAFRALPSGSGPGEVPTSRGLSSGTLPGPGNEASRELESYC
Experiment: FACS binding assay
Settings: competition with 20 nM GIP-057, 4° C., 1 hour, read-out: pIC50 Category (converted)
*1 amine or outer side, *2 acyl side, *3 side chain or, on linkers, in order; H or OH if unused. Where a SMILES comes first, the peptide text is derived from it. Bridges are numbered along the chain shown (N, C = ends). [ ]: non-standard residue; d: D form. The star is where a group is joined. X3 = O=C(O)CN1CCN(CC(=O)O)CCN(CC(=O)NCCCOCCOCCOCCCN*)CCN(CC(=O)O)CC1; Trp(5-Br) = N[C@@H](Cc1c[nH]c2ccc(Br)cc12)C(=O)O; Trp(5-Cl) = N[C@@H](Cc1c[nH]c2ccc(Cl)cc12)C(=O)O; Pyridine(2,6-diCH2) = c1cc(C[*:1])nc(C[*:2])c1; Trp(6-F) = N[C@@H](Cc1c[nH]c2cc(F)ccc12)C(=O)O; mXylylene = c1cc(C[*:1])cc(C[*:2])c1; X29 = c1cc(CNCCN[*:2])cc(C[*:1])c1; X7 = c1cc(CSCCN[*:2])cc(C[*:1])c1; Hyp = O=C(O)[C@@H]1C[C@@H](O)CN1; NMeE = CN[C@@H](CCC(=O)O)C(=O)O; Suc = O=C(CCC(=O)[*:2])[*:1]; Thp = NC1(C(=O)O)CCOCC1; Aib = CC(C)(N)C(=O)O
Property: IC50; scope: individual compounds

CC[C@H](C)[C@@H]1NC(=O)[C@H](CC(C)C)NC(=O)C(C)(C)NC(=O)[C@@H](NC(=O)[C@@H](CC(C)C)NC(=O)[C@H](CCC(=O)O)NC(=O)[C@@H]2CCCN2C(=O)[C@H](Cc2c[nH]c3ccc(Br)cc23)NC(=O)[C@H](Cc2c[nH]c3cc(F)ccc23)NC(=O)[C@H](CC(=O)O)NC(=O)CCC(=O)NCCCOCCOCCOCCCNC(=O)CN2CCN(CC(=O)O)CCN(CC(=O)O)CCN(CC(=O)O)CC2)CSCc2cccc(c2)CSCCNC1=O [GIP-105] ({X3-Suc}-D[Trp(6-F)][Trp(5-Br)]PE[dL]C[Aib]LI; linker 7-C via X7)    < 10 nM
CC[C@H](C)[C@@H]1NC(=O)[C@H](CC(C)C)NC(=O)C(C)(C)NC(=O)[C@@H](NC(=O)[C@@H](CC(C)C)NC(=O)[C@H](CCC(=O)O)NC(=O)[C@@H]2CCCN2C(=O)[C@H](Cc2c[nH]c3ccc(Cl)cc23)NC(=O)[C@H](Cc2c[nH]c3ccccc23)NC(=O)[C@H](CC(=O)O)NC(=O)CCC(=O)NCCCOCCOCCOCCCNC(=O)CN2CCN(CC(=O)O)CCN(CC(=O)O)CCN(CC(=O)O)CC2)CSCc2cccc(c2)CNCCNC1=O [GIP-093] ({X3-Suc}-DW[Trp(5-Cl)]PE[dL]C[Aib]LI; linker 7-C via X29)    < 10 nM
CC[C@H](C)[C@@H]1NC(=O)[C@H](CC(C)C)NC(=O)C2(CCOCC2)NC(=O)[C@@H](NC(=O)[C@@H](CC(C)C)NC(=O)[C@H](CCC(=O)O)NC(=O)[C@@H]2CCCN2C(=O)[C@H](Cc2c[nH]c3ccc(Cl)cc23)NC(=O)[C@H](Cc2c[nH]c3ccccc23)NC(=O)CCC(=O)O)CSCc2cccc(c2)CSC[C@@H](C(N)=O)NC1=O [GIP-199] (Suc-W[Trp(5-Cl)]PE[dL]C[Thp]LIC-NH2; linker 6-10 via mXylylene)    < 10 nM
CC[C@H](C)[C@@H]1NC(=O)[C@H](CC(C)C)NC(=O)C(C)(C)NC(=O)[C@@H](NC(=O)[C@@H](CC(C)C)NC(=O)[C@H](CCC(=O)O)NC(=O)[C@@H]2CCCN2C(=O)[C@H](Cc2c[nH]c3ccc(Cl)cc23)NC(=O)[C@H](Cc2c[nH]c3ccccc23)NC(=O)[C@H](CC(=O)O)NC(=O)CCC(=O)NCCCOCCOCCOCCCNC(=O)CN2CCN(CC(=O)O)CCN(CC(=O)O)CCN(CC(=O)O)CC2)CSCc2cccc(c2)CSCCNC1=O [GIP-077] ({X3-Suc}-DW[Trp(5-Cl)]PE[dL]C[Aib]LI; linker 7-C via X7)    < 10 nM
CC[C@H](C)[C@@H]1NC(=O)[C@H](CO)NC(=O)C2(CCOCC2)NC(=O)[C@@H](NC(=O)[C@@H](CC(C)C)NC(=O)[C@H](CCC(=O)O)NC(=O)[C@@H]2C[C@@H](O)CN2C(=O)[C@H](Cc2c[nH]c3ccc(Cl)cc23)NC(=O)[C@H](Cc2c[nH]c3ccccc23)NC(=O)[C@H](CC(=O)O)NC(C)=O)CSCc2cccc(n2)CSC[C@@H](C(N)=O)NC1=O [GIP-236] (Ac-DW[Trp(5-Cl)][Hyp]E[dL]C[Thp]SIC-NH2; linker 7-11 via Pyridine(2,6-diCH2))    < 10 nM

May I ask what IC50 has been recorded for CC[C@H](C)[C@@H]1NC(=O)[C@H](CC(C)C)NC(=O)C2(CCOCC2)NC(=O)[C@@H](NC(=O)[C@H](CC(C)C)NC(=O)[C@H](CCC(=O)O)N(C)C(=O)[C@@H]2C[C@@H](O)CN2C(=O)[C@H](Cc2c[nH]c3ccc(Cl)cc23)NC(=O)[C@H](Cc2c[nH]c3ccccc23)NC(=O)[C@H](CC(=O)O)NC(C)=O)CSCc2cccc(n2)CSC[C@@H](C(N)=O)NC1=O [GIP-217] (Ac-DW[Trp(5-Cl)][Hyp][NMeE]LC[Thp]LIC-NH2; linker 7-11 via Pyridine(2,6-diCH2)) ?
< 10 nM

IC50 lookup needed for CC[C@H](C)[C@@H]1NC(=O)[C@H](CC(C)C)NC(=O)C2(CCOCC2)NC(=O)[C@@H](NC(=O)[C@@H](CC(C)C)NC(=O)[C@H](CCC(=O)O)NC(=O)[C@@H]2CCCN2C(=O)[C@H](Cc2c[nH]c3ccc(Cl)cc23)NC(=O)[C@H](Cc2c[nH]c3ccccc23)NC(=O)[C@H](CC(=O)O)NC(=O)CCC(=O)NCCCOCCOCCOCCCNC(=O)CN2CCN(CC(=O)O)CCN(CC(=O)O)CCN(CC(=O)O)CC2)CSCc2cccc(c2)CSCCNC1=O [GIP-087] ({X3-Suc}-DW[Trp(5-Cl)]PE[dL]C[Thp]LI; linker 7-C via X7) , thanks.
< 10 nM

Look up IC50 for this compound: CC[C@H](C)[C@@H]1NC(=O)[C@H](CC(C)C)NC(=O)C(C)(C)NC(=O)[C@@H](NC(=O)[C@@H](CC(C)C)NC(=O)[C@H](CCC(=O)O)NC(=O)[C@@H]2CCCN2C(=O)[C@H](Cc2c[nH]c3ccc(Cl)cc23)NC(=O)[C@H](Cc2c[nH]c3ccccc23)NC(=O)CCC(=O)O)CSCc2cccc(c2)CSC[C@@H](C(N)=O)NC1=O [GIP-198] (Suc-W[Trp(5-Cl)]PE[dL]C[Aib]LIC-NH2; linker 6-10 via mXylylene)
< 10 nM

Using the record for CC[C@H](C)[C@@H]1NC(=O)[C@H](CC(C)C)NC(=O)[C@H](CCC(N)=O)NC(=O)[C@@H](NC(=O)[C@H](CC(C)C)NC(=O)[C@H](CCC(=O)O)NC(=O)[C@@H]2CCCN2C(=O)[C@H](Cc2c[nH]c3ccccc23)NC(=O)[C@H](Cc2c[nH]c3ccccc23)NC(=O)[C@H](CC(=O)O)NC(=O)[C@H](Cc2ccc(O)cc2)NC(=O)[C@@H](N)CCSC)CSCc2cccc(c2)CSC[C@@H](C(N)=O)NC1=O [GIP-241] (H-MYDWWPELCQLIC-NH2; linker 9-13 via mXylylene) , report its IC50.
10 to 79.4 nM
